# test system: NaV1.3 (Homo sapiens, UniProt Q9NY46)
# Sequence (Q9NY46 whole entry): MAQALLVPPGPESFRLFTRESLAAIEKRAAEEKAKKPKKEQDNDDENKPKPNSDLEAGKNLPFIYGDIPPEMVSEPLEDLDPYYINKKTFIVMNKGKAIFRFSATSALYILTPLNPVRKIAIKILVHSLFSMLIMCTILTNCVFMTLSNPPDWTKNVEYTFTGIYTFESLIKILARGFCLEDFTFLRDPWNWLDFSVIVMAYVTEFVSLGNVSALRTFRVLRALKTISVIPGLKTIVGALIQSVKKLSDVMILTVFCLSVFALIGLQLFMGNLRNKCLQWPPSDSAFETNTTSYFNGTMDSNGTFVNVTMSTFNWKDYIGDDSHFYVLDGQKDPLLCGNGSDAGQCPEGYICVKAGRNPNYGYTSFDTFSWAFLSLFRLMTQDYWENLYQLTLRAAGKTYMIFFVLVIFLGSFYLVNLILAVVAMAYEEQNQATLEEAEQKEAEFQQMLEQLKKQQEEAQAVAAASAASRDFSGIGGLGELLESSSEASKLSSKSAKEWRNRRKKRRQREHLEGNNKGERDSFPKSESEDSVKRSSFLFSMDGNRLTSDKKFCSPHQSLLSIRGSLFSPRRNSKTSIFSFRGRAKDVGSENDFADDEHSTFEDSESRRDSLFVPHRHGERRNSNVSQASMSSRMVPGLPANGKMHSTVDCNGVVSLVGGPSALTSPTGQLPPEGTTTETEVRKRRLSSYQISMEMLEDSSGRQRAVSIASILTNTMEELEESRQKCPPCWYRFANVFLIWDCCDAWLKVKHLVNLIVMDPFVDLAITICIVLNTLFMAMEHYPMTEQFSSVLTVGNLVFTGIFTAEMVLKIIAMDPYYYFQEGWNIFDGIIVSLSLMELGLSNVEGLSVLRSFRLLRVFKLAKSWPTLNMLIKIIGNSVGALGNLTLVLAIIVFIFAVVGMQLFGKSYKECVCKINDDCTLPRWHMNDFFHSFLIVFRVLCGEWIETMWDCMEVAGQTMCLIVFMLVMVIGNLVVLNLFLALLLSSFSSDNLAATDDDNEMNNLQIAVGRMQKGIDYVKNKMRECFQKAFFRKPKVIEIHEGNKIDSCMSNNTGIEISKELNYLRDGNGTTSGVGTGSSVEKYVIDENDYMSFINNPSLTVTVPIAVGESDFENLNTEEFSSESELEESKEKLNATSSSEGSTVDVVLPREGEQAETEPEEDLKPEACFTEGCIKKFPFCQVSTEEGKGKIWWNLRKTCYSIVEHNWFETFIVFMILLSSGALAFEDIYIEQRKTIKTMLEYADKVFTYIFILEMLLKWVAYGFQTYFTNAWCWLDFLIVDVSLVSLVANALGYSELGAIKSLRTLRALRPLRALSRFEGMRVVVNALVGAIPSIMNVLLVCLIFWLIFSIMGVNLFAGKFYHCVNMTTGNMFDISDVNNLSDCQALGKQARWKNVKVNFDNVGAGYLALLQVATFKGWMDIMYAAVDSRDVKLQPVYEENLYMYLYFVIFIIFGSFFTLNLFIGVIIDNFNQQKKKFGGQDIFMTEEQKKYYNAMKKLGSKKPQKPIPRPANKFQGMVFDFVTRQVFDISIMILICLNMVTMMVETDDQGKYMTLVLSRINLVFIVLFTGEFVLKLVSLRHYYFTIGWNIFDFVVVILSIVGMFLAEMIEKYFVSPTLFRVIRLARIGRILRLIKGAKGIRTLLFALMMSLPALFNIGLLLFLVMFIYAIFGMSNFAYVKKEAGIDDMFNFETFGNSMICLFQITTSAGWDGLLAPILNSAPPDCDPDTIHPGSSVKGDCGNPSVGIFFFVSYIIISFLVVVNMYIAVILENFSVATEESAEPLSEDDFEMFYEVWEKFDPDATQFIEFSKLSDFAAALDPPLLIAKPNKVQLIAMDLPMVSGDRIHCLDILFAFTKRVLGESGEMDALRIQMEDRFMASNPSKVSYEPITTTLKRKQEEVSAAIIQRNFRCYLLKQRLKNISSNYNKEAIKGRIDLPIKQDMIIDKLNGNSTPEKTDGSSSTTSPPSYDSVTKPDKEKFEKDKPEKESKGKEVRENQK
# experiment: VIPR optical membrane potential assay, NaV1.3 inhibition
# Assay type: cell-based
# Set-up: expressed in transfected cells; host or cells: HEK293
# condition context: activity against NaV 1.3 channel
pIC50: −log10 of the molar value.
measure name: pIC50

Task item: Provide value of pIC50 for this record tested with NaV1.3 (Homo sapiens, UniProt Q9NY46): O=C(c1cc(F)ccc1F)N1CCCc2cc(S(=O)(=O)Nc3nccs3)ccc21 [Compound 70]
Reply: < 5.30

Task item: Likewise for O=C(COc1ccc(F)cc1)N1CCc2cc(S(=O)(=O)Nc3ncns3)ccc21 [Compound 42] ?
Reply: > 5.70

Task item: Likewise for O=C(c1ccc(Cl)c(Cl)c1)n1ccc2cc(S(=O)(=O)Nc3nccs3)ccc21 [Compound 126] ?
Reply: 5.30 to 5.70

Task item: Likewise for O=C(COc1ccc(F)c(Cl)c1)N1Cc2ccc(S(=O)(=O)Nc3ncns3)cc2C1 [Compound 200] ?
Reply: > 5.70

* * *

# test system: NaV1.3 (Homo sapiens, UniProt Q9NY46)
# experiment: VIPR optical membrane potential assay, NaV1.3 inhibition
# Assay type: cell-based
# Set-up: expressed in transfected cells; host or cells: HEK293
# condition context: activity against NaV 1.3 channel
pIC50: −log10 of the molar value.
# pIC50 listing for each entry below

Consider the following illustrative entries.
molecule="O=C(CNc1ccc(F)c(Cl)c1)N1CCc2cc(S(=O)(=O)Nc3nccs3)ccc21 [Compound 48]" value_observed="5.30 to 5.70"
molecule="Cc1ccnc(NS(=O)(=O)c2ccc3c(c2)CCN3C(=O)CCCOc2ccc(Cl)cc2Cl)n1 [Compound 208]" value_observed="< 5.30"
molecule="O=C(COc1ccccc1)N1CCc2ccc(S(=O)(=O)Nc3nccs3)cc2C1 [Compound 12]" value_observed="< 5.30"
molecule="CC(Oc1ccccc1)C(=O)N1CCc2cc(S(=O)(=O)Nc3ncns3)ccc21 (centres unmarked) [Compound 125]" value_observed="> 5.70"
molecule="O=C(Oc1ccc(Cl)cc1)N1CCc2cc(S(=O)(=O)Nc3nccs3)ccc21 [Compound 117]" value_observed="< 5.30"

Task item: What measured pIC50 goes with Cc1ccc(C(=O)N2CCc3cc(S(=O)(=O)Nc4nccs4)ccc32)cc1Cl [Compound 82] ?
Reply: > 5.70

Task item: Likewise for CC(Oc1ccccc1Cl)C(=O)N1CCc2cc(S(=O)(=O)Nc3nccs3)ccc21 (centres unmarked) [Compound 148] ?
Reply: > 5.70

Task item: Likewise for O=C(c1ccccc1F)N1CCCc2cc(S(=O)(=O)Nc3nccs3)ccc21 [Compound 96] ?
Reply: < 5.30

* * *

# test system: NaV1.3 (Homo sapiens)
# experiment: VIPR optical membrane potential assay, NaV1.3 inhibition
# Assay type: cell-based
# Design: expressed in transfected cells; host or cells: HEK293
# condition context: activity against NaV 1.3 channel
# IC50 listing for each entry below

compound="COc1ccc(CC(=O)N2Cc3ccc(S(=O)(=O)Nc4nccs4)cc3C2)cc1 [Compound 193]" test_system="NaV1.3 (Homo sapiens)" measure_name=IC50 value_observed="2000 to 5000 nM"
compound="C[C@H](C(=O)N1Cc2ccc(S(=O)(=O)Nc3ncns3)cc2C1)n1ccc2ccccc21 [Compound 207]" test_system="NaV1.3 (Homo sapiens)" measure_name=IC50 value_observed="< 2000 nM"

Task item: Provide value of IC50 for this record tested with NaV1.3 (Homo sapiens): Cc1ccc(OCC(=O)N2CCc3ccc(S(=O)(=O)Nc4nccs4)cc3C2)cc1 [Compound 25]
Reply: > 5000 nM

Task item: Likewise for O=C(CCc1ccccc1)N1CCc2cc(S(=O)(=O)Nc3nccs3)ccc21 [Compound 197] ?
Reply: < 2000 nM

Task item: Likewise for COc1ccc(CCC(=O)n2ccc3cc(S(=O)(=O)Nc4nccs4)ccc32)cc1 [Compound 187] ?
Reply: < 2000 nM

Task item: Likewise for C[C@@H](C(=O)N1Cc2ccc(S(=O)(=O)Nc3ncns3)cc2C1)n1ccc2ccccc21 [Compound 164] ?
Reply: < 2000 nM

Task item: Likewise for O=C(COc1ccc(OC(F)(F)F)cc1)N1Cc2ccc(S(=O)(=O)Nc3nccs3)cc2C1 [Compound 84] ?
Reply: < 2000 nM

Task item: Likewise for O=C(c1cccc(Cl)c1)n1ccc2cc(S(=O)(=O)Nc3nccs3)ccc21 [Compound 86] ?
Reply: < 2000 nM

Task item: Likewise for CC(C)(Oc1ccc(Cl)cc1)C(=O)n1ccc2cc(S(=O)(=O)Nc3nccs3)ccc21 [Compound 173] ?
Reply: 2000 to 5000 nM

Task item: Likewise for O=C(c1ccc(F)c(F)c1F)N1CCc2cc(S(=O)(=O)Nc3ncns3)ccc21 [Compound 6] ?
Reply: 2000 to 5000 nM

* * *

# IC50 listing for each entry below
# test system: UniProt:Q9NY46
# experiment: VIPR optical membrane potential assay, NaV1.3 inhibition
# Type: cell-based
# Set-up: expressed in transfected cells; host or cells: HEK293
# condition context: activity against NaV 1.3 channel

structure=O=S(=O)(Nc1nccs1)c1ccc2c(c1)CCN2CCNc1nc2ccccc2[nH]1 measure_name=IC50 value_observed="> 5 µM"
structure=O=C(CN1CCC(F)(F)CC1)N1CCc2cc(S(=O)(=O)Nc3nccs3)ccc21 measure_name=IC50 value_observed="> 5 µM"
structure=COc1cccc(CCC(=O)n2ccc3cc(S(=O)(=O)Nc4nccs4)ccc32)c1 measure_name=IC50 value_observed="< 2 µM"
structure=O=C(COc1ccccc1)N1Cc2ccc(S(=O)(=O)Nc3nccs3)cc2C1 measure_name=IC50 value_observed="< 2 µM"
structure=O=C(c1ccc(F)cc1F)N1CCCc2cc(S(=O)(=O)Nc3nccs3)ccc21 measure_name=IC50 value_observed="> 5 µM"
structure=Cc1ccccc1OCC(=O)N1CCc2cc(S(=O)(=O)Nc3nccs3)ccc21 measure_name=IC50 value_observed="< 2 µM"

Now look at this one.
Task item: What measured IC50 goes with "COc1cccc(CCC(=O)N2CCc3cc(S(=O)(=O)Nc4nccs4)ccc32)c1" ?
Reply: < 2 µM
